Notes on pEC50 obtained with SARS-CoV-1 Mpro (Severe acute respiratory syndrome coronavirus (SARS-CoV)).
// scale note: pEC50 = -log10(conc_M); give the bare number

Worked examples follow.
{"chemical.string": "CN1CCN(C(=O)c2cc(Cl)cc(C(F)(F)F)c2N2CC[C@@H](NC(=O)c3cc(=O)[nH]c4c(F)cccc34)C2)CC1", "pEC50": 8.77}
{"chemical.string": "O=C(N[C@@H]1CCN(c2c(C(=O)N3CCOCC3)cc(Br)cc2C(F)(F)F)C1)c1c(F)c(=O)[nH]c2c(F)c(F)ccc12", "pEC50": 8.65}
{"chemical.string": "COCCN1CCN(C(=O)c2cc(Br)cc(C(F)(F)F)c2N2CC[C@@H](NC(=O)c3cc(=O)[nH]c4c(F)cccc34)C2)CC1", "pEC50": 8.59}
{"chemical.string": "N#Cc1cc(C(=O)N2CCOCC2)c(N2CC[C@@H](NC(=O)c3c(F)c(=O)[nH]c4c(F)cccc34)C2)c(C(F)(F)F)c1", "pEC50": 8.82}
{"chemical.string": "Cc1cc(C(=O)N2CCOCC2)c(N2C[C@H](NC(=O)c3cc(=O)[nH]c4c(F)cc(F)cc34)CC2=O)c(C2CC2)c1", "pEC50": 8.84}

# input for lookup
Would you mind telling me what pEC50 value was observed for COc1cccc2[nH]c(=O)cc(C(=O)N[C@@H]3CCN(c4c(Cl)cc(C)cc4C(=O)N4CCOCC4)C3)c12 ? 8.50

----------
- target.of.assay: SARS-CoV-2 Mpro (Severe acute respiratory syndrome coronavirus 2 (2019-nCoV) (SARS-CoV-2), UniProt P0DTD1)
quantity.measured: pEC50
// scale note: pEC50 = -log10(conc_M); give the bare number

{"compound": "CN1CCN(C(=O)c2cc(Cl)cc(C(F)(F)F)c2N2CC[C@@H](NC(=O)c3cc(=O)[nH]c4c(F)cccc34)C2)CC1", "readout.value": 9.20}

Would you mind telling me what pEC50 value was observed for O=C(N[C@@H]1CCN(c2c(C(=O)N3CCOCC3)cc(F)cc2C2CC2)C1)c1cc(=O)[nH]c2c(F)cccc12 ? 9.33

Would you mind telling me what pEC50 value was observed for Cc1cc(C(=O)N2CCOCC2)c(N2C[C@H](NC(=O)c3cc(=O)[nH]c4c(F)c(F)ccc34)C[C@H]2C)c(C2CC2)c1 ? 9.38

----------
- target.of.assay: OC43 Mpro (Human coronavirus OC43 (HCoV-OC43), UniProt P0C6X6)
- Sequence (P0C6X6 3247-3549 limits assumed): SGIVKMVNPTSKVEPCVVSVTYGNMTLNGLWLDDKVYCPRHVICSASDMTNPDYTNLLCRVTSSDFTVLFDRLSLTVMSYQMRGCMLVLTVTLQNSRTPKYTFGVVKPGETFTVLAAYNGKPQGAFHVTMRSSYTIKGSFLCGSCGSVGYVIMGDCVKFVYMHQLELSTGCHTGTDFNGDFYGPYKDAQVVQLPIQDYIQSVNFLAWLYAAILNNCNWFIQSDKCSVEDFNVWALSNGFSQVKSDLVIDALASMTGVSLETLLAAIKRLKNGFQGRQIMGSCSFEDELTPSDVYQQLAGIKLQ
pEC50: −log10 of the molar value.
Assign TRUE whenever pEC50 does not fall below 9; assign FALSE whenever it does.

{"molecule": "O=C(N[C@@H]1CCN(c2c(C(=O)N3CCCC3)cc(Br)cc2C(F)(F)F)C1)c1cc(=O)[nH]c2c(F)cccc12 [Compound 68]", "qualitative.label": "FALSE"}
{"molecule": "O=C(N[C@@H]1CCN(c2c(C(=O)N3CCOCC3)cc(F)cc2C(F)(F)F)C1)c1cc(=O)[nH]c2c(F)cc(F)cc12 [Compound 38]", "qualitative.label": "FALSE"}
{"molecule": "O=C(N[C@@H]1CC(=O)N(c2c(C(=O)N3CCOCC3)cc(Br)cc2C(F)(F)F)C1)c1c(F)c(=O)[nH]c2c(F)c(F)ccc12 [Compound 77]", "qualitative.label": "FALSE"}

Can O=C(N[C@@H]1CCN(c2c(C(=O)N3CCOCC3)cc(Br)cc2C(F)(F)F)C1)c1cc(C(F)F)[nH]c(=O)c1 [Compound 61] be said to have pEC50 at or above 9? FALSE

Can Cc1cc(C(=O)N[C@@H]2CCN(c3c(C(=O)NCC(C)C)cc(C#N)cc3C(F)(F)F)C2)cc(=O)[nH]1 [Compound 29] be said to have pEC50 at or above 9? FALSE

Can O=C(N[C@@H]1CCN(c2c(OC(F)F)cc(Cl)cc2C(=O)N2CCOCC2)C1)c1cc(=O)[nH]c2c(F)cccc12 [Compound 43] be said to have pEC50 at or above 9? FALSE

Can COc1cccc2[nH]c(=O)cc(C(=O)N[C@@H]3CCN(c4c(Cl)cc(C)cc4C(=O)N4CCOCC4)C3)c12 [Compound 85] be said to have pEC50 at or above 9? FALSE

Can Cc1[nH]c(=O)cc(C(=O)N[C@@H]2CCN(c3c(C(=O)N4CCOCC4)cc(Br)cc3C(F)(F)F)C2)c1F [Compound 59] be said to have pEC50 at or above 9? FALSE
